Task for the reader: assign each of the following molecules its reported growth.
- System: MDA-MB-468 breast
- procedure_details: NCI-60 one-dose screen, 48 h (100 = growth as untreated, 0 = no growth, -100 = all killed)
- experimental_parameters: 10 µM unless noted
Compounds without any hit were thinned out: in the full panel of roughly 83,000, 20% have a hit. The source made the active and inactive calls. The calls were made as follows: active = growth percent below 10; inactive = the rest.

q: Enter growth (test system MDA-MB-468 breast) for CC/C(=C(\c1ccccc1)c1ccc(OCCNC)cc1)c1ccccc1
a: -97.7% (active)

q: Give the observed growth of Nc1nc(N)c2c(n1)NC(c1cccc(Nc3ccnc4cc(C(F)(F)F)ccc34)c1)CC(c1ccc3c(c1)OCO3)=N2 (stereo not given) for MDA-MB-468 breast.
a: 58% (inactive)

q: // fetch growth; item: CC1(C)CC[C@]2(C(=O)O)CC[C@]3(C)C(=CC[C@@H]4[C@@]5(C)C/C(=C/O)C(=O)C(C)(C)[C@@H]5CC[C@]43C)[C@@H]2C1 ; system: MDA-MB-468 breast
a: 77.3% (inactive)

q: Give growth for this entry on MDA-MB-468 breast: CC[n+]1ccc2c(c1)C(=O)c1nccc3c1c-2nc1ccccc13
a: -52.3% (active)

q: # lookup: MDA-MB-468 breast growth, key = CO[C@H]1CC(O[C@@H]2/C(C)=C/C[C@@H]3C[C@@H](C[C@]4(C=C[C@H](C)[C@@H](C5CCCCC5)O4)O3)OC(=O)[C@@H]3C=C(C)[C@@H](O)[C@H]4OC/C(=C\C=C\[C@@H]2C)[C@]43O)O[C@@H](C)C1O[C@H]1C[C@H](OC)[C@@H](O)[C@H](C)O1 (stereo not given in full)
a: -72.5% (active)

q: Report growth from MDA-MB-468 breast testing of COc1cccc(Cn2cc3c(c2)-c2oncc2CC3)c1
a: 1.66% (active)

q: Return reported growth for target or system MDA-MB-468 breast, item Cc1nc(Nc2n[nH]c3c2CN(C(=O)N[C@H](CN(C)C)c2ccccc2)C3(C)C)c2sccc2n1 .
a: -44.3% (active)

q: Quote MDA-MB-468 breast growth for entry Cc1ccc(C(=NN=C(N)N)c2ccc(C)cc2)cc1 .
a: -42.5% (active)

q: Provide growth, recorded with MDA-MB-468 breast, of NC(=O)Cc1nc(O)cc(=O)[nH]1
a: 111% (inactive)

q: Report value only: growth, MDA-MB-468 breast, Fc1ccc2c(-c3cncn3CCc3ccccc3)c[nH]c2c1
a: 74.6% (inactive)

* * *

- System: MDA-MB-468 breast
- procedure_details: NCI-60 one-dose screen, 48 h (100 = growth as untreated, 0 = no growth, -100 = all killed)
- experimental_parameters: 10 µM unless noted
About 83,000 compounds went through this panel and 20% of them were active in at least one assay; those are over-represented in the sample as a whole.
Each record's class is read off its growth using these ranges: low = under 20%, middle = from 20% up to 70%, high = 70% and over

q: Class? Entry: CC[C@H]1OC(=O)[C@H](C)[C@@H](O[C@H]2C[C@@](C)(OC)[C@@H](O)[C@H](C)O2)[C@H](C)[C@@H](O[C@@H]2O[C@H](C)C[C@H](N(C)C)[C@H]2O)[C@](C)(O)C[C@H](C)CN(C)[C@H](C)[C@@H](O)[C@]1(C)O
a: high

q: Classify this compound: C#C[C@]1(O)CC[C@H]2[C@@H]3CC=C4c5sc(Nc6cccc(C)n6)nc5CC[C@]4(C)[C@H]3CC[C@@]21C
a: middle

q: Determine which band this compound sits in: COc1ccccc1Nc1nnc(-c2ccc(Cl)cc2)o1
a: low

q: Tag the class for O=C1NCCC12CCN(c1c(Cl)cncc1-c1ccc(O)cc1)CC2
a: high

q: Field: class (growth) — entry: CN1CCN(CCOc2cc(OC3CCOCC3)c3c(Nc4c(Cl)ccc5c4OCO5)ncnc3c2)CC1
a: middle

q: // bin(item) where item = N#CCc1cccc2ccccc12
a: high

q: Which class does CC(=O)O[C@H]1[C@H](CC#CC#CC[C@@H]2C[C@]3(C)[C@H]4CC=C5[C@H]6[C@@H](C)[C@H](C)CC[C@]6(C(=O)NCCN(CCN)CCN)CC[C@@]5(C)[C@]4(C)CC[C@H]3C(C)(C)[C@H]2OC(C)=O)C[C@]2(C)[C@H]3CC=C4[C@H]5[C@@H](C)[C@H](C)CC[C@]5(C(=O)NCCN(CCN)CCN)CC[C@@]4(C)[C@]3(C)CC[C@H]2C1(C)C fall in?
a: low

q: Please let me know in which category the item NC(=O)Nc1ccc2ncnc(Nc3ccc(Cl)cc3)c2c1 belongs.
a: low

q: Consider O=[N+]([O-])CC(O)c1ccccc1 (configuration not stated) . To which growth class does it belong?
a: high

q: Form: Item = Cc1cccc(NC(=O)[C@@H]2c3ccccc3C(=O)N(c3ccc(Cl)cc3)[C@H]2c2ccc(Cl)cc2)n1 ; Class = ?
a: low

q: Which class holds COc1ccc(-c2cc(-c3cc(OC)c(OC)c(OC)c3)c(C#N)c(N3CCOCC3)n2)cc1O ?
a: high

q: Which category fits this record: COC1C[C@H](O[C@@H]2C[C@H](O[C@@H]3C[C@H](O[C@@H]4C(=O)c5c(cc6cc(O[C@H]7C[C@@H](O[C@H]8C[C@@H](O)[C@H](O)C(C)O8)[C@H](O)C(C)O7)c(C)c(O)c6c5O)C[C@H]4C(OC)C(=O)[C@@H](O)[C@@H](C)O)OC(C)[C@H]3O)OC(C)[C@@H]2O)OC(C)[C@@H]1O (some centres not stated)
a: low

q: Using the reported growth, which band applies to CCOC(=O)c1sc(NC(=O)COc2cccc(/C=C3\Cc4ccc(Cl)cc4C3=O)c2)nc1C ?
a: high

q: Which class holds Cc1cc(=O)oc2cc(O)cc(O)c12 ?
a: high

q: Class for O=C(CSc1nnc(-c2cccs2)n1-c1ccccc1)Nc1ccccc1 ?
a: middle

q: Using the reported growth, which band applies to N=C(N)c1ccc(-c2ccc(-c3ccc(F)cc3)o2)o1 ?
a: low

q: Record C=C(C)[C@@H]1CC[C@]2(C)CC[C@]3(C)[C@H](CC[C@@H]4[C@@]5(C)CCCNC(C)(C)[C@@H]5CC[C@]43C)[C@@H]12 — which class?
a: middle

q: Kindly identify the class of C=C1C(=O)O[C@H]2[C@H]1CC/C(Cn1cc(-c3cc(C(F)(F)F)cc(C(F)(F)F)c3)nn1)=C\CC[C@@]1(C)O[C@@H]21 .
a: low

q: Categorize the following entry: CN(C)c1ccc(/C=C(\C#N)c2cc3ccccc3n2C)cc1
a: middle

q: Please classify: CCCCc1n(Cc2ccc3ccccc3n2)cc[n+]1Cc1ccc2ccccc2n1
a: low

q: Please indicate the class for Nc1nc(Cl)c2c(C(F)(F)F)cn(CC3CCNCC3)c2n1 based on its growth.
a: middle

* * *

- System: MDA-MB-468 breast
- procedure_details: NCI-60 one-dose screen, 48 h (100 = growth as untreated, 0 = no growth, -100 = all killed)
- experimental_parameters: 10 µM unless noted
Compounds without any hit were thinned out: in the full panel of roughly 83,000, 20% have a hit.
observed_property: growth (%)
// units = %; emit number, no label

q: State the measured growth (MDA-MB-468 breast) of COc1ccc2c(c1)[n+]([O-])c(C(=O)/C=C/C=C(\Cl)c1cc(OC)c(OC)c(OC)c1)c(C)[n+]2[O-]
a: 62.2

q: Lab note: record growth of NS(=O)(=O)c1ccc(-n2ncc3c(=O)[nH]c(CN4CCN(c5cc6c(cc5F)c(=O)c(C(=O)O)cn6C5CC5)CC4)nc32)cc1 tested on MDA-MB-468 breast.
a: 95.4

q: Under MDA-MB-468 breast: report growth of CN1CCN(c2ccc3nc(/N=C/c4ccc5sc(-c6ccc([N+](=O)[O-])cc6)nc5c4)sc3c2)CC1 .
a: 109

q: GET growth where system = MDA-MB-468 breast and item = O=C(CCCn1c2c(sc3ccccc32)c(=O)n2nnc(-c3ccccc3)c12)NCCc1cnc[nH]1
a: -91

q: Determine reported growth for Cc1cc(CCNC=O)c(C)c2c1sc1ccccc12 ; test system: MDA-MB-468 breast.
a: 71.4

q: Please look at O=c1ccc2nc(C(F)(F)F)nn(-c3ccccc3)c-2c1 and tell me its recorded growth on MDA-MB-468 breast.
a: -73.5

q: Report measured growth on MDA-MB-468 breast; entry: COC(=O)[C@H](C)NC(=O)c1ccc(NC(=O)c2[nH]c(C)c(Cl)c2Cl)c(OCCN)c1
a: 107

q: State measured growth of the molecule O=C(O)CC1Cc2ccccc2C1C(=O)O (centres undefined) with MDA-MB-468 breast.
a: 106

q: Please report the measured growth for C=C(C)Cn1c(SCC(=O)c2cccs2)nc2sc3c(c2c1=O)CCCC3 tested on MDA-MB-468 breast.
a: 68.6
